- tested.on: CaM (Homo sapiens, UniProt P0DP23)
- assay.method.text: steady-state fluorescence anisotropy
No end group written: not given here. *: point of attachment. FITC = O=C1OC2(c3ccc(O)cc3Oc3cc(O)ccc32)c2ccc(NC(=S)*)cc21
measured.parameter: Kd (µM)
Express your answer in µM, writing the number without its unit.

Ask: # Kd lookup, item {FITC}-LIGRAYRSNYTRKHFR [TRPM6np]
Result: 14.9
